Method notes: Evaluation of hue on glossy paper (L*, a*, b*, C* of inkjet recorded image)
Type: physicochemical
Measurement context: Glossy paper manufactured by Canon Inc.; C*=((a*)^2+(b*)^2)^1/2
Readout type: Chroma C*

Molecule: O=C(O)c1ccccc1Nc1nc(O)nc(Nc2cc(Nc3cc(Oc4ccc(-c5ccc(S(=O)(=O)O)cc5)cc4S(=O)(=O)O)c4[nH]c(=O)c(C(=O)c5cccc(S(=O)(=O)O)c5)c5c4c3C(=O)c3ccccc3-5)c(S(=O)(=O)O)cc2S(=O)(=O)O)n1 [Example 6 (No. 8)]
Chroma C*: 82.1
--
Molecule: O=C(O)c1cc(Nc2nc(O)nc(Nc3cc(Nc4cc(Oc5ccc(-c6ccc(S(=O)(=O)O)cc6)cc5S(=O)(=O)O)c5[nH]c(=O)c(C(=O)c6cccc(S(=O)(=O)O)c6)c6c5c4C(=O)c4ccccc4-6)c(S(=O)(=O)O)cc3S(=O)(=O)O)n2)cc(C(=O)O)c1 [Example 7 (No. 11)]
Chroma C*: 78.6
--
Molecule: Cn1c(=O)cc2c3c(c(Nc4cc(Nc5nc(O)nc(Nc6cc(S(=O)(=O)O)ccc6S(=O)(=O)O)n5)ccc4S(=O)(=O)O)ccc31)C(=O)c1ccccc1-2 [Comparative Example 1, reference compound]
Chroma C*: 81.3
--
Molecule: O=C(c1cccc(S(=O)(=O)O)c1)c1c2c3c(c(Nc4cc(Nc5nc(O)nc(Nc6ccccc6S(=O)(=O)O)n5)c(S(=O)(=O)O)cc4S(=O)(=O)O)cc(Oc4ccc(-c5ccc(S(=O)(=O)O)cc5)cc4S(=O)(=O)O)c3[nH]c1=O)C(=O)c1ccccc1-2 [Example 5 (No. 1)]
Chroma C*: 88.2
